These data points were gathered from PubChem BioAssay.

TEST_DESCRIPTION: modulators of HCV replicon luciferase signal, primary screen, HCV replication inhibitor project, Huh7 cells, luciferase reporter (AID 1109);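 note: huh7 hepatoma cells harbouring a luciferase neomycin HCV replicon reporter; luciferase luminescence as measure of HCV replicon replication; test concentration not given here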
CONDITION: 48 h, higher = more signal
RECORDED_ENDPOINT: z-score
Form rule: numeric answer, no unit written next to it.

Sample records with z-score:
CCOC(=O)C[C@H]1[C@H](OC(=O)c2cc3ccccc3oc2=O)[C@@H](NC(=O)c2ccc(-c3ccccc3)cc2)c2cc(OCCCO)ccc2N1C(=O)c1ccc2ccccc2n1 | -0.989
COc1ccc(C#Cc2ccc3c(c2)[C@]2(C(=O)N3)[C@H](c3ccc(O)cc3)N3[C@H](c4ccccc4)[C@H](c4ccccc4)OC(=O)[C@H]3[C@@H]2C(=O)O)cc1 | -0.327
COC(=O)[C@@]1(Cc2ccccc2)[C@H]2c3cc(C(=O)N(C)C)n(CCc4ccc(O)c(OC)c4)c3C[C@H]2CN1C(=O)c1ccccc1 | -0.261
C=CCOC(=O)[C@H]1[C@@H]2C(=O)O[C@@H](c3ccccc3)[C@@H](c3ccccc3)N2[C@@H](c2ccc(OCCOC(=O)[C@@H]3C[C@@H]4C(=O)N[C@@H](CCCCNC(C)=O)C(=O)N4[C@@H]3c3ccc(O)cc3)cc2)[C@]12C(=O)Nc1ccc(I)cc12 | -1.14
CN1C(=O)C2C=CC(C(O)C#Cc3ccccc3)N(Nc3ccccc3)C2C1=O (stereo not drawn) | 0.234
O=C1O[C@@H](c2ccccc2)[C@@H](c2ccccc2)N2[C@@H](c3ccc(O)cc3)[C@]3(C(=O)Nc4ccc(C#CC5=CCCCC5)cc43)[C@@H](C(=O)NC[C@H](O)c3ccccc3)[C@H]12 | -1.31
O=C1C=C(c2ccccc2)C(=O)c2ccc([C@H]3Oc4ccccc4S(=O)(=O)N4CCC[C@@H]34)cc21 | -4.28
C[C@H]1NC(=O)[C@@]23C(=O)N[C@@H](Cc4ccccc4)C2[C@H](C)[C@@]2(C)O[C@H]2C3/C=C/C/C=C\CNC(=O)[C@H](Cc2ccccc2)NC1=O (stereo partly drawn) | -1.02
Cc1ccc(S[C@]2(C(=O)NCC(F)(F)F)CC(=O)N(Cc3ccccc3C(F)(F)F)[C@@H]2c2ccc(CO)cc2I)cc1 | -0.414
CC(C)(C)OC(=O)CC[C@]1(C(=O)NCC(O)CO)N=C(c2ccc(OCCCO)cc2)O[C@H]1c1ccccc1 (stereo partly drawn) | -1.74

Exercise: For the molecule shown here, `COC(=O)c1nc2oc1CC[C@@H](CO)NC(=O)N(C)Cc1cnnn1C[C@H](Cc1ccccc1)NC2=O` , give the reported z-score.
Solution: -0.421

Exercise: Using the record for `O=C1C[C@@](C(=O)NCCN2CCOCC2)(c2ccc([N+](=O)[O-])cc2)[C@@H](c2ccc(CO)cc2I)N1C1CCCCC1` , report its z-score.
Solution: -2.66

Exercise: Quick one: z-score for `O[C@@H](Cc1ccccc1)[C@@H](/C=C/C1CC1)N(CC#Cc1ccccc1)Cc1cccc(Cl)c1` ?
Solution: -1.52
